Molecular target: NK1 receptor (Homo sapiens)
Sequence (P25103 whole entry, species assumed): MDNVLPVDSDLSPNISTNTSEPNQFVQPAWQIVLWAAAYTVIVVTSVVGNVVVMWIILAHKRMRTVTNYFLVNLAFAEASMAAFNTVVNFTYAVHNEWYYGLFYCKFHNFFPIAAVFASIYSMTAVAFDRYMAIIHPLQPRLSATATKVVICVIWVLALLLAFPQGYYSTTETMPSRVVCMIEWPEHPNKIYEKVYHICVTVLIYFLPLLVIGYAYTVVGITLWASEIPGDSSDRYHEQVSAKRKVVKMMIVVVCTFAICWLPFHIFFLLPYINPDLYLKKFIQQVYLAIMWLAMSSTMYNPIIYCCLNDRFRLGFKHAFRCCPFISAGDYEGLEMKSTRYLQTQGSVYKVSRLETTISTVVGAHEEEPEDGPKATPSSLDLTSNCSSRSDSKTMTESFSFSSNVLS
Test: NK1-Red ß-ARRNomad biosensor cell line inhibition assay (co-treatment with Substance P)
Settings: co-treated with Substance P 100 nM, 24 h, BD PATHWAY 855; read-out: Ic50 (inhibition of NK1 receptor, biosensor change of localization)
pIC50: −log10 of the molar value.
ATTRIBUTE_MEASURED: pIC50

Briefly, pIC50 measured for `FC(F)(F)c1cc(CO[C@H]2CCCN[C@H]2c2ccccc2)cc(C(F)(F)F)c1` : ~6.74
